The measured values listed here are drawn from paper PMC9482650.

Target: T1, LIN7C, Q9NUP9
T1 sequence (Q9NUP9 88-185, limits assumed, looked up): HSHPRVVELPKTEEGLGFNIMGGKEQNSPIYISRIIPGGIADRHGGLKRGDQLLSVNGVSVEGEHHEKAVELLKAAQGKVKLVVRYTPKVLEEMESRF
Experiment: holdup assay
Design: key: below the threshold = too weak to quantify, mostly under pKd 3.1 to 4
Settings: plain residues with an end cap or a label only (N-terminal biotin on a linker: ttds)
pKd: recorded values

- Binder: "RSLEEEESQL [GRASP, Q7Z6J2]"
  pKd: 3.78
- Binder: "TVASEKESVM [SLC1A5, Q15758]"
  pKd: 3.62
- Binder: "SVWLRKETRV [CYSLTR2, Q9NS75]"
  pKd: 5.03
- Binder: "PKTPPTDTSV [KIR3DL3, Q8N743]"
  pKd: 3.51
- Binder: "VLRLQSETSV [VANGL1, Q8TAA9]"
  pKd: 3.94
- Binder: "SSRTRRETQL [HPV16-E6, P03126]"
  pKd: 4.04
- Binder: "STLTIFETAL [ABCC4, O15439]"
  pKd: 4.68
